- target_or_test_system: GST-WW-YAP fusion protein (WW domain of human YAP in pGEX-2TK) (human)
- assay_details: competition of a fixed concentration of labelled GST-WW-YAP on blotted GST-…, densitometry (data not shown)
Ends that are not written are not given here. * marks the point of attachment. Biotin = O=C1N[C@H]2[C@H](CS[C@H]2CCCCC(=O)*)N1
assay_endpoint: pIC50
// pIC50 here means minus log10 of the molar concentration (mol/L)

input: Tell me the measured pIC50 of Biotin-GTPPPPYTVG [unlabelled decapeptide biotin-… containing the PY motif] , please.
output: 6.12
